# Tested on: Glut4
# Assay protocol: Glut4 mRNA expression in adipocytes (real-time PCR)
# Format: cell-based, human
# Test settings: Table 17; differentiating adipocytes; control = treatment with ISIS 342673
In the oligonucleotide strings, read from the 5' end, every base follows the letter of its sugar. An asterisk marks phosphorothioate; unmarked linkages are phosphodiester. Other units and linkages are bracketed, terminal groups are in braces. A string of capitals states the bases alone. e = 2'-O-(2-methoxyethyl) (MOE); [5mC] = 5-methylcytosine; d = 2'-deoxy (DNA)
GLUT4 mRNA reference
Experimental readout: GLUT4 mRNA

Substance: 328130 (antisense eA*e[5mC]*e[5mC]*eT*e[5mC]*eA*eG*eG*eT*eG*eG*eT*eT*eG*eA*eA*eG*eG*eA*eG*eA) [compound 328130]
Experimental readout: GLUT4 mRNA
Test result: 83.8 percentage of control
//
Substance: 328132 (antisense eG*eT*eG*eA*eG*eA*eG*eT*eA*eG*e[5mC]*eA*eT*eG*eT*eT*eT*eG*eT*e[5mC]*eT) [compound 328132]
Experimental readout: GLUT4 mRNA
Test result: 72.1 percentage of control
//
Substance: 328138 (eG*eA*eG*e[5mC]*eT*eG*e[5mC]*eT*e[5mC]*eA*eG*e[5mC]*eT*eG*eG*e[5mC]*e[5mC]*eA*eT*e[5mC]*eA; anti-miR) [compound 328138]
Experimental readout: GLUT4 mRNA
Test result: 86.8 percentage of control
//
Substance: 328129 (antisense eA*eG*e[5mC]*e[5mC]*eT*e[5mC]*e[5mC]*eT*eT*e[5mC]*eT*eT*e[5mC]*eT*e[5mC]*eG*eT*eA*e[5mC]*eT*eA) [compound 328129]
Experimental readout: GLUT4 mRNA
Test result: 60.0 percentage of control
//
Substance: 105990 (antisense AGCAAAAGATCAATCCGTTA; sugars from the 5' end e5 d10 e5, backbone and methylation of C not given here) [compound 105990]
Experimental readout: GLUT4 mRNA
Test result: 59.5 percentage of control

###

Fold Increase over UTC (caspase-3 activity, apoptosis) reference
# System: T47D cells
# Assay protocol: Caspase-3 activity assay (apoptosis) in T47D cells
# Test settings: T47D cells, 200 nM oligomeric compound, 48 hours; experiment of Table 12
In the oligonucleotide strings, read from the 5' end, every base follows the letter of its sugar. An asterisk marks phosphorothioate; unmarked linkages are phosphodiester. Other units and linkages are bracketed, terminal groups are in braces. A string of capitals states the bases alone. e = 2'-O-(2-methoxyethyl) (MOE); [5mC] = 5-methylcytosine; d = 2'-deoxy (DNA)
Experimental readout: Fold Increase over UTC (caspase-3 activity, apoptosis) (fold)

Substance: 328434 (antisense e[5mC]*eG*e[5mC]*eA*eT*d[5mC]*dT*dT*dG*dA*d[5mC]*dT*dG*dT*dA*eG*e[5mC]*eA*eT*eG) [compound 328434]
Unit spec: fold
Test result: 0.8
//
Substance: 328414 (antisense e[5mC]*eT*eT*e[5mC]*eA*dA*dG*dT*dG*d[5mC]*dA*dG*d[5mC]*d[5mC]*dG*eT*eA*eG*eG*e[5mC]) [compound 328414]
Unit spec: fold
Test result: 0.9
//
Substance: 328394 (eG*eT*eT*eT*eT*dT*dT*d[5mC]*dA*dA*dA*dT*d[5mC]*d[5mC]*d[5mC]*eA*eA*eA*e[5mC]*eT) [compound 328394]
Unit spec: fold
Test result: 0.8
//
Substance: 328388 (eT*e[5mC]*e[5mC]*e[5mC]*eA*dT*dA*dG*d[5mC]*dA*dG*dG*dG*d[5mC]*dA*eG*eA*eG*e[5mC]*e[5mC]; antisense) [compound 328388]
Unit spec: fold
Test result: 0.9
//
Substance: 328396 (antisense e[5mC]*eT*eG*eG*eT*dT*dG*dG*dG*dT*dA*dT*dG*dA*dG*eA*e[5mC]*eA*eG*eA) [compound 328396]
Unit spec: fold
Test result: 0.8
//
Substance: 328387 (eT*eT*eA*eT*e[5mC]*dG*dG*dA*dA*d[5mC]*dT*dT*d[5mC]*dA*d[5mC]*eA*eG*eA*eG*eA; antisense) [compound 328387]
Unit spec: fold
Test result: 1.4
//
Substance: 328644 (eG*eA*e[5mC]*eA*eA*dG*dG*dT*dG*dG*dG*dA*dG*d[5mC]*dG*eA*eG*eT*eG*eG; antisense) [compound 328644]
Unit spec: fold
Test result: 0.7
//
Substance: 328389 (eG*eG*e[5mC]*eA*e[5mC]*dT*dT*d[5mC]*dA*dT*dT*dG*d[5mC]*dT*dG*e[5mC]*eT*eG*e[5mC]*e[5mC]; antisense) [compound 328389]
Unit spec: fold
Test result: 1.1
//
Substance: 328650 (eA*eA*eT*e[5mC]*e[5mC]*dA*dT*dT*dG*dA*dA*dG*dA*dG*dG*e[5mC]*eG*eA*eT*eT; antisense) [compound 328650]
Unit spec: fold
Test result: 0.8
//
Substance: 328640 (eT*e[5mC]*eT*e[5mC]*e[5mC]*dT*dT*dG*dG*dG*dT*dG*dT*d[5mC]*d[5mC]*eT*e[5mC]*e[5mC]*eT*e[5mC]; antisense) [compound 328640]
Unit spec: fold
Test result: 0.9
//
Substance: 328432 (antisense eG*eA*eG*e[5mC]*eA*dT*dG*d[5mC]*dA*dA*d[5mC]*dA*d[5mC]*dT*d[5mC]*eT*eG*eT*eG*e[5mC]) [compound 328432]
Unit spec: fold
Test result: 0.6

###

# Tested on: HSL
# Assay protocol: HSL mRNA expression in adipocytes (real-time PCR)
# Assay type: cell-based, human
# Test settings: differentiating adipocytes transfected with oligomeric compound; Table 75
In the oligonucleotide strings, read from the 5' end, every base follows the letter of its sugar. An asterisk marks phosphorothioate; unmarked linkages are phosphodiester. Other units and linkages are bracketed, terminal groups are in braces. A string of capitals states the bases alone. e = 2'-O-(2-methoxyethyl) (MOE); [5mC] = 5-methylcytosine
HSL mRNA reference
Experimental readout: HSL mRNA

Substance: 346695 (CACUGGUACAAGGGUUGGGAGA; all 2'-MOE, all phosphorothioate, methylation of C and T or U not given here) [compound 346695]
Target: HSL
Test result: 73 percentage of untreated control (UTC)
//
Substance: 327945 (antisense e[5mC]*eT*eG*eT*eT*e[5mC]*e[5mC]*eT*eG*e[5mC]*eT*eG*eA*eA*e[5mC]*eT*eG*eA*eG*e[5mC]*e[5mC]*eA) [compound 327945]
Target: HSL
Test result: 41 percentage of untreated control (UTC)
//
Substance: 328117 (antisense eT*e[5mC]*e[5mC]*eA*e[5mC]*eA*eA*eA*eG*e[5mC]*eT*eG*eA*eA*e[5mC]*eA*eT*eG*eT*e[5mC]*eT) [compound 328117]
Target: HSL
Test result: 18 percentage of untreated control (UTC)

###

# Tested on: HSL
# Assay protocol: HSL mRNA expression in adipocytes (real-time PCR)
# Format: cell-based, human
# Test settings: differentiating adipocytes transfected with oligomeric compound; Table 75
In the oligonucleotide strings, read from the 5' end, every base follows the letter of its sugar. An asterisk marks phosphorothioate; unmarked linkages are phosphodiester. Other units and linkages are bracketed, terminal groups are in braces. A string of capitals states the bases alone. e = 2'-O-(2-methoxyethyl) (MOE); [5mC] = 5-methylcytosine
Experimental readout: HSL mRNA

Substance: 328131 (antisense eA*eT*eA*eT*eG*eT*e[5mC]*eA*eT*eA*eT*e[5mC]*eA*eA*eA*e[5mC]*eT*e[5mC]*e[5mC]*eT*eA) [compound 328131]
Test result: 51 percentage of untreated control (UTC)
//
Substance: 328125 (antisense eT*eA*eT*eG*eA*eA*eA*eT*eG*e[5mC]*e[5mC]*eA*eG*eA*eG*e[5mC]*eT*eG*e[5mC]*e[5mC]*eA) [compound 328125]
Test result: 48 percentage of untreated control (UTC)
//
Substance: 327898 (antisense eG*eT*eA*eG*eT*eG*e[5mC]*eT*eT*eT*e[5mC]*eT*eA*e[5mC]*eT*eT*eT*eA*eT*eG) [compound 327898]
Test result: 92 percentage of untreated control (UTC)

###

# Test system: PPARγ
# Assay protocol: PPARγ mRNA expression in adipocytes (real-time PCR)
# Format: cell-based, human
# Test settings: differentiating adipocytes transfected with oligomeric compound; Table 75
# Experimental: Expression of the four hallmark genes, HSL, aP2, Glut4, and PPARγ, is also measured in adipocytes transfected with oligomeric compounds of the invention. Cells are lysed on day nine post-transfection and total RNA is harvested. The amount of total RNA in each sample is determined using a Ribogreen Assay (Invitrogen Life Technologies, Carlsbad, Calif.). […]
In the oligonucleotide strings, read from the 5' end, every base follows the letter of its sugar. An asterisk marks phosphorothioate; unmarked linkages are phosphodiester. Other units and linkages are bracketed, terminal groups are in braces. A string of capitals states the bases alone. e = 2'-O-(2-methoxyethyl) (MOE); [5mC] = 5-methylcytosine
PPAR gamma mRNA reference

Substance: 327900 (antisense e[5mC]*eT*eG*e[5mC]*e[5mC]*eT*eG*eT*e[5mC]*eT*eG*eT*eG*e[5mC]*e[5mC]*eT*eG*e[5mC]*eT*eG*eT) [compound 327900]
PPAR gamma mRNA: 55 percentage of untreated control (UTC)

Substance: 341807 (antisense CTGGGACTTTGTAGGCCAGTT; all 2'-MOE, all phosphorothioate, methylation of C not given here) [compound 341807]
PPAR gamma mRNA: 83 percentage of untreated control (UTC)

Substance: 344612 (ACGGAAGGGCAGAGAGGGCCAG; anti-miR; all 2'-MOE, all phosphorothioate, methylation of C not given here) [compound 344612]
PPAR gamma mRNA: 62 percentage of untreated control (UTC)

Substance: 327929 (antisense eG*eA*eA*e[5mC]*eA*eG*eA*eT*eA*eG*eT*e[5mC]*eT*eA*eA*eA*e[5mC]*eA*e[5mC]*eT*eG*eG*eG) [compound 327929]
PPAR gamma mRNA: 71 percentage of untreated control (UTC)

Substance: 328123 (antisense eT*eT*eA*e[5mC]*eA*eG*eG*eT*eG*e[5mC]*eT*eG*e[5mC]*eA*eA*e[5mC]*eT*eG*eG*eA*eA) [compound 328123]
PPAR gamma mRNA: 88 percentage of untreated control (UTC)
